protocol.notes: PET hydrolysis product formed (TPA+MHET+BHET, UV-Vis) per mg enzyme (mmol/mg enzyme); higher = more PET depolymerisation activity; extreme values may be limits of the assay
condition.notes: PET substrate: aFilm; 60 °C; pH 8.5; 2 h
observation.type: PET hydrolysis product formed

sequence.data | observation.type | reading
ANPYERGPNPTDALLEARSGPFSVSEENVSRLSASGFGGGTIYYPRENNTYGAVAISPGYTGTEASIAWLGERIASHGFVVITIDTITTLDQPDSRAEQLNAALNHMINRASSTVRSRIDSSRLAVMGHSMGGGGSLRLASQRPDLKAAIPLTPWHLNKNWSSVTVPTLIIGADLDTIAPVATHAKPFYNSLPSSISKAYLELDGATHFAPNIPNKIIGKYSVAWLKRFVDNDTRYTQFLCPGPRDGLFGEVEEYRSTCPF [TfCut2] | PET hydrolysis product formed | 0.00697
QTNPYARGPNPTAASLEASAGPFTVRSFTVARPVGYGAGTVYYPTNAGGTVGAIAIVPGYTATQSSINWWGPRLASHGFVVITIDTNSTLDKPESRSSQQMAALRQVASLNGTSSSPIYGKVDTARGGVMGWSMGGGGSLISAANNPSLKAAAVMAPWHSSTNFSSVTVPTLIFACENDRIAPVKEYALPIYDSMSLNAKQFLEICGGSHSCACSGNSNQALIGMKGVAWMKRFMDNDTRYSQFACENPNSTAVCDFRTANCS [HotPETase] | PET hydrolysis product formed | 0.0455

Data origin: the supplement of paper PMC11196671
